This collection of values is drawn from ChEMBL document CHEMBL1201862.

- System: DMS-273
- protocolSummary: NCI tumour cell line growth inhibition, 48 h
Calls of active or inactive are those of the source. No stated cut-off is given here; in the data, active = GI50 up to about 1.1 µM and inactive = higher.
Outcome codes: true for active, false for inactive

1. CCOC(=O)COc1ccc(OC)c2c1C(=O)CCC2: false
2. O=C1OC2C(O)COC2(O)C1(O)Cc1c[nH]c2ccccc12 (centres undefined): false
3. C#C[C@]1(O)CCC2C3CCc4cc(Oc5nc(F)nc(-n6c(C)nc7cc8ccccc8cc76)n5)ccc4C3CCC21C (some centres undefined): false
4. [O-][n+]1c(-c2ccccc2)oc2ccccc21: false
5. CC(N)Cc1ccc(Cl)cc1 (centres undefined): false
6. Cn1ncc2c(Nc3ccc(Cl)cc3)c3ccccc3nc21: false
7. CCOC(=O)CC(NC(=O)c1nc[nH]c1/N=N/N(C)C)C(=O)OCC (centres undefined): false
8. CC(C)(C)/N=C\N(C=C(c1ccccc1)c1ccccc1)C1CCCCC1: false
9. CCCCCOc1ccc(/C=N\c2ccc(CCc3ccc(/N=C/c4ccc(OCCCCC)cc4)cc3)cc2)cc1: false
10. COc1cc(C2c3cc4c(cc3[C@@H](Nc3ccccc3)C3COC(=O)[C@H]23)OCO4)cc(OC)c1O (some centres undefined): true
11. CC1=Nn2c(nnc2-c2ccc(Cl)cc2)NC(C)(C)C1: false
12. CCN(CC)CCC(=O)NC1c2ccccc2Oc2c(C)cccc21 (centres undefined): false
13. COc1ccc2ccc3c(c2c1)CN1CCc2cc(OC)c(OC)cc2C1C3 (centres undefined): false
14. O=C(CCN1CCCCC1)C(=Cc1ccccc1)C(=O)CCN1CCCCC1: false

----------
- Test system: UO-31
- protocolSummary: NCI tumour cell line growth inhibition, 48 h
Activity calls are given as the source filed them. Cut-off read from the data, not from the text of the source: active = GI50 up to about 1.1 µM and inactive = higher.
Known GI50 of a selection of compounds
propertyLabel: GI50

1. CCOC(=O)c1nc2ccccc2nc1Oc1ccc(C(=O)OC)cc1: > 100 µM (inactive)
2. CC1(C)OC(=O)N(c2ccccc2)C12C=Cc1cc([N+](=O)[O-])cc([N+](=O)[O-])c1O2 (stereo not given): 34.2 µM (inactive)
3. O=C(CCN1CCCCC1)C(=Cc1ccccc1)C(=O)CCN1CCCCC1: > 100 µM (inactive)
4. CN(C)CCNC(=O)c1cc([N+](=O)[O-])cn1C: > 100 µM (inactive)
5. O=c1c(O)c(-c2cc(O)c(O)cc2O)oc2cc(O)c(C3OC(CO)C(O)C(O)C3O)c(O)c12 (stereo not given): > 100 µM (inactive)

----------
Consider compounds characterized by their GI50 with HCT-15.
propertyLabel: GI50

1. CS(=O)(=O)OCC1CCCCCCCCCCC12SCCCS2 (stereo unspecified): > 100 µM
2. COc1cc2c(cc1OC)[C@H](C)N1CCc3cc(OC)c(OC)cc3[C@@H]1C2: > 100 µM
3. Cc1c(Cl)c(S(N)(=O)=O)cc2c1N=CNS2(=O)=O: > 100 µM
4. O=Cc1cn(CCCCCCCCCCCCn2cc(C=O)c3ccccc32)c2ccccc12: > 100 µM
5. COc1ccc(/C=C(\NC(=O)c2ccccc2)c2nc3ccccc3[nH]2)cc1OC: > 100 µM
6. C/C=C\C1OC1(C)c1cc(=O)c2c(C)cc3c(c2o1)C(=O)c1c(O)c(C2CC(C)(N(C)C)C(OC(C)=O)C(C)O2)cc(C2CC(N(C)C)C(O)C(C)O2)c1C3=O (stereo unspecified): 0.00404 µM
7. O=C1C2CC=CCC2C(=O)C12CCc1ccccc12 (stereo unspecified): > 100 µM
8. C/C(=N\NC1=NCCN1)c1cn(C2=NCCN2)nc1C: > 100 µM
9. C[C@H]1CC[C@@H]2[C@@H](C)[C@H]3[C@H](C[C@H]4[C@@H]5CC=C6C[C@@H](O)CC[C@]6(C)[C@H]5CC[C@]34C)N2C1: > 100 µM
10. COc1cc(Oc2nc3ccc(C(F)(F)F)cc3nc2-c2ccccc2)cc(OC)c1OC: > 100 µM
11. CNS(=O)(=O)NN(C)S(=O)(=O)c1ccccc1: > 100 µM
12. C=C1C(=O)C2=CC1CCC(=O)C1(C)CCC(OC(C)=O)C(C)(C)C1CC2O (stereo unspecified): 0.552 µM
13. C#Cc1cccc(N2C(=O)CCC2=O)c1: 22.1 µM
14. Cc1cccc(C(C)C)c1NC(=O)C(=O)C(C(=O)c1ccccc1F)C1OC(=O)c2ccccc21 (stereo unspecified): 20.5 µM
15. O=C1C(CN2CCCC2)CCCC1CN1CCCC1 (stereo unspecified): 2.19 µM
16. Nn1c(CCCCCCCCc2nnc(COc3ccc4ccccc4c3O)n2N)nnc1COc1ccc2ccccc2c1O: 22.3 µM
17. COc1cc2c(c(N)c1OC)C(=O)/C(=C/c1cc(C)c(O)c(C)c1)C2: < 0.01 µM
18. CCOC(=O)c1nc2ccccc2nc1Oc1ccc(C(=O)OC)cc1: > 100 µM
19. COc1ccc(-n2c(CCC(=O)O)nc3c2C(=O)c2ccccc2C3=O)cc1: > 100 µM
20. NC1=NN(c2ccccc2)C2(c3ccncc3C(=O)O)C1C(N)=NN2c1ccccc1 (stereo unspecified): > 100 µM
21. NC(=O)/N=C(\N)NC(=O)c1ccccc1: > 100 µM
22. O=C(Oc1c(Cl)cc(C2(c3cc(Cl)c(OC(=O)c4ccccc4)c(Cl)c3)CCCCC2)cc1Cl)c1ccccc1: 11.9 µM
23. O=C(NCCCC/N=c1/cccccc1NCCCCNC(=O)OCc1ccccc1)OCc1ccccc1: 8.05 µM
24. O=C(O)CCNS(=O)(=O)c1ccc(NC(=O)c2ccccc2)cc1: > 100 µM
25. C=C(C)C1Cc2c(c3ccccc3n(C)c2=O)O1 (stereo unspecified): > 100 µM
26. COc1ccc(CNc2cnc3ccc(N)cc3n2)cc1: > 100 µM
27. C/C1=C\[C@@H](O)C(=O)/C=C/C=C\c2csc(n2)[C@@H](C)NC(=O)C[C@@]2(CC1)[S+]([O-])SC(=O)[C@]2(C)O (stereo partly specified): 0.0134 µM
28. CC1=NOC(=O)/C1=C/c1cccc2ccccc12: > 100 µM
29. O=C1c2ccccc2C(=O)N1CC#CCO: > 100 µM
30. N=C(N)NS(=O)(=O)c1ccc(Nc2c3ccccc3nc3c(C(=O)NC(CO)(CO)CO)cccc23)cc1: 93.8 µM
31. Cc1ccc(NC(c2ccccc2)c2ccc3cccnc3c2O)cc1 (stereo unspecified): 2.64 µM
32. Cc1cc(C)c(-c2noc(-c3ccc(Cl)cc3)c2C2=NCCCN2)c(C)c1: 18.5 µM
33. O=C(NNC(=O)c1cc2ccccc2[nH]1)c1cc2ccccc2[nH]1: > 100 µM
34. Cc1cc(C2(O)C=C(C(C)(C)C)C(=O)C(C(C)(C)C)=C2)c(C)cc1C1(O)C=C(C(C)(C)C)C(=O)C(C(C)(C)C)=C1: > 100 µM
35. CC(=O)OCC1OC(O/C=C(\CN=[N+]=[N-])C(C)=O)C(OC(C)=O)C(OC(C)=O)C1OC(C)=O (stereo unspecified): 3.94 µM
36. Cc1ccccc1NC(=O)C(=O)CC(=O)C1CCOC1=O (stereo unspecified): > 100 µM

----------
- System: MCF7
- protocolSummary: NCI tumour cell line growth inhibition, 48 h
Calls of active or inactive are those of the source. Rule as the data show it: active = GI50 up to about 1.1 µM and inactive = higher.
propertyLabel: GI50

1. CCOc1ccc(/N=C/C=C(\Cl)c2ccc3ccccc3c2)cc1: 17.7 µM (inactive)
2. C#Cc1cccc(N2C(=O)CCC2=O)c1: 19.4 µM (inactive)
3. COc1ccc(Cn2nc(OCc3ccccc3)c3cc([N+](=O)[O-])ccc32)cc1: > 100 µM (inactive)
4. CC(O[Si](c1ccccc1)(c1ccccc1)C(C)(C)C)[C@H](NC(=O)OC(C)(C)C)C(=O)O (stereo not given in full): 27.5 µM (inactive)
5. O=[N+]([O-])c1c(O)c2nonc2c2nn(-c3ccccc3)nc12: 20.5 µM (inactive)

----------
- Tested on: A549
- protocolSummary: NCI tumour cell line growth inhibition, 48 h
Activity calls are given as the source filed them. No stated cut-off is given here; in the data, active = GI50 up to about 1.1 µM and inactive = higher.
Outcome codes: y for active, n for inactive

1. OC(c1cc(C23CC4CC(CC(C4)C2)C3)nc2c(Cl)cc(Cl)cc12)C1CCCCN1 (centres undefined): n
2. Cc1ccc(C2(N3CCCC3)OC(C)(C)c3cccc4cccc2c34)cc1 (centres undefined): n
3. COc1cc(/C=C2\N=C(c3ccccc3)N(c3nc4ccc(Sc5ccccc5)cc4[nH]3)C2=O)ccc1O: n
4. C=C1C(=O)C23C(CC(OC(C)=O)C1[C@@H]2OC(C)=O)C1(C)C(OC(C)=O)CCC(C)(C)C1C[C@@H]3OC(C)=O (some centres undefined): n
5. Cc1ccc(NC(=O)CSC(N)=O)cc1C: n
6. CC(=O)CN/C(C)=N/Nc1ccc([N+](=O)[O-])cc1[N+](=O)[O-]: n
7. O=C1CCCCCCC2=C1C(Sc1ccccc1)CC2 (centres undefined): n
8. O=c1/c(=C/c2ccccc2[N+](=O)[O-])sc2nnc(-c3cccnc3)n12: n
9. Nc1ccc2c(SCc3ccc([N+](=O)[O-])cc3)c3ccccc3nc2c1: n
10. COc1ccc(NC(=S)N/N=C\c2ccc(NC(C)=O)cc2)cc1: n
11. COC(=O)[C@@H](NC(=O)c1ccc(CNC(=O)/C(C)=C/c2ccccc2)cc1)C(C)C: n
12. C=C(C)CC(C)(c1cc2ccccc2n1C)N1CCOCC1 (centres undefined): n
13. O=C(Sc1c(-c2ccccc2)c(=O)n(-c2ccccc2)c(=S)n1-c1ccccc1)c1cccs1: n
14. O=[N+]([O-])c1sc2ccc(Cl)cc2c1Nc1ccc(Cl)cc1: n
15. COC(=O)C1=NN2c3ccccc3C(=O)OCCC2(C)C1 (centres undefined): n
16. NC1=NN(c2ccccc2)C2(c3ccncc3C(=O)O)C1C(N)=NN2c1ccccc1 (centres undefined): n
17. C=C1C(=O)OC2/C=C(\CO)C3OC3C3OC3(C)CC(OC(=O)/C(=C/C)CO)C12 (centres undefined): n
18. O=C1C(CN2CCCC2)CCCC1CN1CCCC1 (centres undefined): n
19. Cc1cccc2c(N)c3cccc(C(=O)NCCN4CCOCC4)c3nc12: y
20. C/C(=N\Nc1nc2ccccc2n1C)c1cc2ccccc2cn1: y
21. CC1(C)OC(=O)N(c2ccccc2)C12C=Cc1cc([N+](=O)[O-])cc([N+](=O)[O-])c1O2 (centres undefined): n
22. COc1ccc(-c2c(N)[n+]([O-])c3cc(C)c(C)cc3[n+]2[O-])cc1OC: n
23. CCOc1ccc(/N=C/C=C(\Cl)c2ccc3ccccc3c2)cc1: n
24. N#CCCN(CCC#N)c1ccc(/C=C2\SC(=S)NC2=O)cc1: n
25. CCc1cccc(C(C)C)c1NC(=O)C(=O)Nn1c(S)nc2ccccc2c1=O: n
26. CC1C(=O)CC[C@@]2(C)C(=O)CCCC12O (some centres undefined): n
27. COc1ccc(-n2c(CCC(=O)O)nc3c2C(=O)c2ccccc2C3=O)cc1: n
28. CCOC(=O)CCc1cc(=O)oc2cc(O)cc(O)c12: n
29. Cn1c(=S)[nH]c(N)c(Cc2ccccc2)c1=O: n
